# assay text: Restrictive medium S. cerevisiae growth inhibition, OD615, pilot screen of yeast lifespan reduction project, restrictive growth control (AID 706);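 further: modified DeaD lifespan yeast strain shifted to restrictive glucose medium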
# condition set: OD615, 48 h, at 10 µM, stronger effect = higher value
metric name: growth inhibition (%)
Value expressed in %; do not type the unit.

Completed entries (count: 8):
COc1ccc2ccccc2c1C1CC(=O)N2CN(Cc3ccco3)CSC2=C1C#N (centres undefined): 16.4
CC(C)C(=O)N=c1sc2cc(F)cc(F)c2n1C: -0.65
CCCCSC1=C(C#N)C(c2ccccc2C)CC(=O)N1 (centres undefined): 3.23
O=C(Cn1ncc2c(=O)oc3ccccc3c21)N1CCc2ccccc2C1: -12.7
Cc1cnc(C(=O)OCC(=O)Nc2ccc(Cl)cc2)cn1: -21
c1ccc2[nH]c(-c3ccnc4ccccc34)nc2c1: -4.32
O=C(NCc1ccco1)Nc1ccc(Br)cc1: 5.27
O=C(Nc1ccc2c(c1)OCO2)c1ccncc1: 0.215

Here is another compound to look at.
Ask: Quick one: growth inhibition of OCCNCCCCCOc1ccc(F)cc1 ?
Reply: -16.2
